# target-system: DENND5A
# procedure-summary: reporter assay of Huesken 2005; also: test concentration or dose not given here
# conditions: siRNA
Oligonucleotides are written 5' to 3', each unit as a sugar letter and its base; * is a phosphorothioate linkage, no mark a phosphodiester; rarer units and linkages stand in square brackets, end groups in braces. Plain capitals give the bases only. d = 2'-deoxy (DNA); r = 2'-OH (RNA)
reported-endpoint: normalised inhibition (eCFP-eYFP dual reporter)

Give normalised inhibition (eCFP-eYFP dual reporter); test system DENND5A; substance sense rCrCrArGrArGrGrGrArGrArArGrUrArCrArUrCdTdT / antisense rGrArUrGrUrArCrUrUrCrUrCrCrCrUrCrUrGrGdTdC
34.5%

Report normalised inhibition (eCFP-eYFP dual reporter) under test system DENND5A for sense rCrCrUrCrUrArCrCrArCrArUrGrCrArCrArArUdTdT / antisense rArUrUrGrUrGrCrArUrGrUrGrGrUrArGrArGrGdGdT .
68.3%

Give normalised inhibition (eCFP-eYFP dual reporter) for this entry on DENND5A: sense rUrGrArArUrGrUrUrCrGrGrArCrArCrCrUrArCdTdT / antisense rGrUrArGrGrUrGrUrCrCrGrArArCrArUrUrCrAdAdC
49%

Tell me its normalised inhibition (eCFP-eYFP dual reporter) on DENND5A: sense rArGrUrUrGrCrCrArGrArGrGrArCrUrUrGrCrCdTdT / antisense rGrGrCrArArGrUrCrCrUrCrUrGrGrCrArArCrUdCdA
71.7%

Fill in: normalised inhibition (eCFP-eYFP dual reporter) on DENND5A, entry sense rUrArUrGrArGrGrCrGrUrUrUrGrUrCrArUrCrCdTdT / antisense rGrGrArUrGrArCrArArArCrGrCrCrUrCrArUrAdAdT
44.9%

Find normalised inhibition (eCFP-eYFP dual reporter) for sense rArGrCrCrCrCrArArUrUrCrCrArUrGrCrCrUrUdTdT / antisense rArArGrGrCrArUrGrGrArArUrUrGrGrGrGrCrUdCdC on DENND5A and write it down.
57.6%

# assay system DENND5A: give normalised inhibition (eCFP-eYFP dual reporter) of sense rArCrCrCrCrArGrCrArGrCrArArUrArArGrGrAdTdT / antisense rUrCrCrUrUrArUrUrGrCrUrGrCrUrGrGrGrGrUdCdT
64.9%

State measured normalised inhibition (eCFP-eYFP dual reporter) of the substance sense rUrUrCrCrUrArCrGrArGrCrUrUrCrUrUrArArGdTdT / antisense rCrUrUrArArGrArArGrCrUrCrGrUrArGrGrArAdTdG with DENND5A.
59.8%

Report normalised inhibition (eCFP-eYFP dual reporter) on DENND5A for this entry: sense rArArArUrCrArGrCrCrUrUrArUrGrGrUrCrCrCdTdT / antisense rGrGrGrArCrCrArUrArArGrGrCrUrGrArUrUrUdCdC
41.9%

Look up and report normalised inhibition (eCFP-eYFP dual reporter), with DENND5A as system, for sense rCrCrArUrGrCrCrUrUrUrArUrUrArUrCrArCrAdTdT / antisense rUrGrUrGrArUrArArUrArArArGrGrCrArUrGrGdAdA
72.5%

Lab note: DENND5A assay, enter normalised inhibition (eCFP-eYFP dual reporter) for sense rGrGrArCrUrGrGrArCrArCrGrGrArGrArCrCrGdTdT / antisense rCrGrGrUrCrUrCrCrGrUrGrUrCrCrArGrUrCrCdGdC here
60.4%

Please respond with reported normalised inhibition (eCFP-eYFP dual reporter) (system DENND5A) for sense rArGrArArGrArArCrUrCrArGrGrArUrUrUrArCdTdT / antisense rGrUrArArArUrCrCrUrGrArGrUrUrCrUrUrCrUdTdC .
44.7%

Give measured normalised inhibition (eCFP-eYFP dual reporter) for sense rUrGrGrArUrGrArCrCrGrGrUrCrArArArGrCrUdTdT / antisense rArGrCrUrUrUrGrArCrCrGrGrUrCrArUrCrCrAdGdG (DENND5A).
67.7%

Name the recorded normalised inhibition (eCFP-eYFP dual reporter) of sense rGrUrGrCrCrArGrArArCrUrUrGrGrGrGrArArGdTdT / antisense rCrUrUrCrCrCrCrArArGrUrUrCrUrGrGrCrArCdTdC , assay system DENND5A.
41.9%

Write down the reported normalised inhibition (eCFP-eYFP dual reporter) (system: DENND5A) of sense rUrCrArCrUrGrCrCrArArCrCrCrArUrGrGrArUdTdT / antisense rArUrCrCrArUrGrGrGrUrUrGrGrCrArGrUrGrAdAdC
57.8%

Send back DENND5A normalised inhibition (eCFP-eYFP dual reporter) of sense rUrUrGrCrArUrUrCrCrUrArCrGrArGrCrUrUrCdTdT / antisense rGrArArGrCrUrCrGrUrArGrGrArArUrGrCrArAdAdG only.
50.8%

Retrieve normalised inhibition (eCFP-eYFP dual reporter) on DENND5A; query sense rUrUrUrCrArCrUrCrArGrArUrGrUrUrUrGrCrAdTdT / antisense rUrGrCrArArArCrArUrCrUrGrArGrUrGrArArAdCdG
42.4%

Using DENND5A as the test system, report measured normalised inhibition (eCFP-eYFP dual reporter) of sense rGrGrGrArArArUrCrArGrCrCrUrUrArUrGrGrUdTdT / antisense rArCrCrArUrArArGrGrCrUrGrArUrUrUrCrCrCdCdT .
61.1%

Enter recorded normalised inhibition (eCFP-eYFP dual reporter) with DENND5A for sense rGrCrCrCrGrGrArArCrUrUrCrUrGrCrCrGrArUdTdT / antisense rArUrCrGrGrCrArGrArArGrUrUrCrCrGrGrGrCdTdC here.
70.9%

Answer briefly: normalised inhibition (eCFP-eYFP dual reporter) recorded on DENND5A for sense rArArCrUrGrGrGrGrUrGrArGrCrCrUrGrGrArAdTdT / antisense rUrUrCrCrArGrGrCrUrCrArCrCrCrCrArGrUrUdCdT
58.4%

// fetch normalised inhibition (eCFP-eYFP dual reporter) for sense rGrGrCrCrArGrCrCrArGrCrArArCrArArGrUrGdTdT / antisense rCrArCrUrUrGrUrUrGrCrUrGrGrCrUrGrGrCrCdCdA ; system: DENND5A
73.7%

Look up DENND5A data: normalised inhibition (eCFP-eYFP dual reporter) of sense rGrArGrGrArUrGrGrCrUrCrUrCrGrGrArCrArUdTdT / antisense rArUrGrUrCrCrGrArGrArGrCrCrArUrCrCrUrCdCdC , then report it.
55.9%

Find normalised inhibition (eCFP-eYFP dual reporter) for sense rArUrCrCrGrCrCrArGrCrCrCrArArArCrUrGrUdTdT / antisense rArCrArGrUrUrUrGrGrGrCrUrGrGrCrGrGrArUdAdG on DENND5A and write it down.
40.9%

Under DENND5A, report normalised inhibition (eCFP-eYFP dual reporter) for sense rCrUrGrArGrGrArUrCrUrCrCrCrUrGrArUrUrCdTdT / antisense rGrArArUrCrArGrGrGrArGrArUrCrCrUrCrArGdGdG
60.6%

----------
# target-system: TMEM63B
# procedure-summary: reporter assay of Huesken 2005
# conditions: siRNA
Oligonucleotides are given in HELM: sugar(base)linkage, 5' to 3'; d 2'-deoxyribose, r ribose, m 2'-O-methylribose, p phosphate. ss, as = sense and antisense strand
reported-endpoint: normalised inhibition (eCFP-eYFP dual reporter) (%)
Reply numerically in %, unit not repeated.

Specify reported normalised inhibition (eCFP-eYFP dual reporter) for the substance shown: RNA1{r(U)p.r(U)p.r(U)p.r(A)p.r(U)p.r(C)p.r(G)p.r(G)p.r(C)p.r(A)p.r(A)p.r(C)p.r(G)p.r(C)p.r(C)p.r(A)p.r(U)p.r(G)p.r(G)p.d(T)p.d(T)}|RNA2{r(C)p.r(C)p.r(A)p.r(U)p.r(G)p.r(G)p.r(C)p.r(G)p.r(U)p.r(U)p.r(G)p.r(C)p.r(C)p.r(G)p.r(A)p.r(U)p.r(A)p.r(A)p.r(A)p.d(G)p.d(G)}$$$RNA1{StrandType:ss}|RNA2{StrandType:as}$
36.7

Given the substance RNA1{r(G)p.r(G)p.r(A)p.r(U)p.r(G)p.r(A)p.r(U)p.r(C)p.r(U)p.r(G)p.r(G)p.r(U)p.r(G)p.r(A)p.r(A)p.r(G)p.r(C)p.r(G)p.r(G)p.d(T)p.d(T)}|RNA2{r(C)p.r(C)p.r(G)p.r(C)p.r(U)p.r(U)p.r(C)p.r(A)p.r(C)p.r(C)p.r(A)p.r(G)p.r(A)p.r(U)p.r(C)p.r(A)p.r(U)p.r(C)p.r(C)p.d(T)p.d(C)}$$$RNA1{StrandType:ss}|RNA2{StrandType:as}$ , write its reported normalised inhibition (eCFP-eYFP dual reporter).
63.9

Find the measured normalised inhibition (eCFP-eYFP dual reporter) of RNA1{r(U)p.r(G)p.r(C)p.r(A)p.r(G)p.r(C)p.r(G)p.r(A)p.r(G)p.r(U)p.r(C)p.r(C)p.r(C)p.r(U)p.r(G)p.r(C)p.r(A)p.r(C)p.r(A)p.d(T)p.d(T)}|RNA2{r(U)p.r(G)p.r(U)p.r(G)p.r(C)p.r(A)p.r(G)p.r(G)p.r(G)p.r(A)p.r(C)p.r(U)p.r(C)p.r(G)p.r(C)p.r(U)p.r(G)p.r(C)p.r(A)p.d(G)p.d(G)}$$$RNA1{StrandType:ss}|RNA2{StrandType:as}$ and report it.
25.9
